Measured Emax of individual entries
Biological target: RAD51 (Homo sapiens)
Sequence (Q06609 1-339): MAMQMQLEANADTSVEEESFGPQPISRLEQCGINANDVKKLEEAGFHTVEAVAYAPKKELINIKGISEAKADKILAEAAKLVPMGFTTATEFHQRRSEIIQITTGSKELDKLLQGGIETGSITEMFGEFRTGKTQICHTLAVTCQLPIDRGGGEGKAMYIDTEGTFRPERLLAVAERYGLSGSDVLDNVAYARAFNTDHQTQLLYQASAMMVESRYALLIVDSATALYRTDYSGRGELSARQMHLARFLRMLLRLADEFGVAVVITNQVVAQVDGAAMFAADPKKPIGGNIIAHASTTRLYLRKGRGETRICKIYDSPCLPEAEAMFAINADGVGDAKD
Assay: Fluorescence polarization-based DNA binding assay (RAD51-ssDNA binding)
Format: biochemical
Conditions: Table 3; cells marked ↓: compound inhibits RAD51-ssDNA binding; read-out: ssDNA binding Max effect
Number only, in %; omit the unit.

Look up Emax for this molecule: Nc1ccc(-c2nc3cc(F)ccc3n3cccc23)cc1 [Compound 12i]
60

* * *

Molecular target: UniProt:Q06609
Sequence (Q06609 1-339): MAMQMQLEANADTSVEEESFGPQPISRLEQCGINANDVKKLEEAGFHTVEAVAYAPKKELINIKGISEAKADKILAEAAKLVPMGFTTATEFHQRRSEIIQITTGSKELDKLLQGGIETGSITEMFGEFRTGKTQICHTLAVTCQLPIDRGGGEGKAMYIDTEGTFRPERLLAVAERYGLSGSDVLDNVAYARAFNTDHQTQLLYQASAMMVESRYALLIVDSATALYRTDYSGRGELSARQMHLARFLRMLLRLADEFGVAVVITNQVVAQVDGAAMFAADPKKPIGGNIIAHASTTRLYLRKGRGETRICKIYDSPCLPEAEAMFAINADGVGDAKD
Assay: Fluorescence polarization-based DNA binding assay (RAD51-ssDNA binding)
Format: biochemical
Conditions: Table 2; cells marked ↓: compound inhibits RAD51-ssDNA binding; read-out: ssDNA binding Max effect
EXPERIMENTAL_READOUT: Emax (%)
Number only, in %; omit the unit.

Look up Emax for this molecule: Nc1cccc(-c2nc3ccccc3n3cccc23)c1 [Compound 9c, 3-(Pyrrolo[1,2-a]quinoxalin-4-yl)aniline]
11

Look up Emax for this molecule: c1cncc(-c2nc3ccccc3n3cccc23)c1 [Compound 11a]
6

Look up Emax for this molecule: O=[N+]([O-])c1cccc(-c2nc3ccccc3n3cccc23)c1 [Compound 9b]
52

Look up Emax for this molecule: c1ccc2c(c1)nc(-c1ccncc1)c1cccn12 [Compound 11b]
7

Look up Emax for this molecule: Nc1ccc(-c2nc3ccccc3n3cccc23)cc1 [Compound 9g, 4-(Pyrrolo[1,2-a]quinoxalin-4-yl)aniline]
18

* * *

target: RAD51 (Homo sapiens, UniProt Q06609); experiment: Gel-based D-loop assay; format: biochemical; details: Table 2; read-out: D-Loops IC50
EXPERIMENTAL_READOUT: IC50
Lab note: write values as number then unit, every time.

// worked examples, IC50 included
Look up IC50 for this compound: c1ccc2c(c1)nc(-c1ccncc1)c1cccn12 [Compound 11b]
79.4 µM

Look up IC50 for this compound: CN(C)c1ccc(-c2nc3ccccc3n3cccc23)cc1 [Compound 9a]
27.6 µM

Look up IC50 for this compound: c1cncc(-c2nc3ccccc3n3cccc23)c1 [Compound 11a]
71.7 µM

New cases:
Look up IC50 for this compound: c1ccc2c(c1)nc(-c1ccc(N3CCOCC3)cc1)c1cccn12 [Compound 9j]
27.2 µM

Look up IC50 for this compound: Nc1cccc(-c2nc3ccccc3n3cccc23)c1 [Compound 9c, 3-(Pyrrolo[1,2-a]quinoxalin-4-yl)aniline]
91.1 µM

Look up IC50 for this compound: Nc1ccc(-c2nc3ccccc3n3cccc23)cc1 [Compound 9g, 4-(Pyrrolo[1,2-a]quinoxalin-4-yl)aniline]
22.1 µM

The reported numbers originate from patent US10973819B2.
